The reported measurements were obtained from paper PMC7802075.

Target: LmjIPCS (inositol phosphorylceramide synthase from L. major) (Leishmania major, UniProt E9AFX2)
Sequence (E9AFX2 whole entry): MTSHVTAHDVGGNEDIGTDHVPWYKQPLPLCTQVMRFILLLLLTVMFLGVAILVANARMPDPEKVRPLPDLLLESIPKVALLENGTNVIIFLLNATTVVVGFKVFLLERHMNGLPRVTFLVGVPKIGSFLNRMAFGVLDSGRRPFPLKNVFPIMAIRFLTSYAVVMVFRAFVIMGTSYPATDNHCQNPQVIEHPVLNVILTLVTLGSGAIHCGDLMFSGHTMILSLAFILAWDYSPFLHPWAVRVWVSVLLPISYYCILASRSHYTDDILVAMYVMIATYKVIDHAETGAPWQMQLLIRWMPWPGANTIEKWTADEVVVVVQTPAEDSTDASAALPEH
Test: biochemical
Format: biochemical
Catalogue of molecules with associated 20mM inhibition LmjIPCS

molecule | 20mM inhibition LmjIPCS, %
Nc1c2c(nc3ccccc13)CCCC2 [9-AMINO-1,2,3,4-TETRAHYDROACRIDINE] | 13
CO/N=C(\C(=O)N[C@@H]1C(=O)N2C(C(=O)OCOC(=O)C(C)(C)C)=C(/C=C\c3scnc3C)CS[C@H]12)c1csc(N)n1 | 10
CC[C@H]1OC(=O)[C@H](C)[C@@H](O[C@H]2C[C@@](C)(OC)[C@@H](O)[C@H](C)O2)[C@H](C)[C@@H](O[C@@H]2O[C@H](C)C[C@H](N(C)C)[C@H]2O)[C@](C)(O)C[C@@H](C)[C@@H]2N[C@@H](COCCOC)O[C@H]([C@H]2C)[C@]1(C)O | 47
CN1CCN(C(c2ccccc2)c2ccccc2)CC1 | 58
